Source of measurements: patent US20250002458A1

assay: Stability of select salts of Compound 1 at 5, 25 and 40° C. over 6 months, purity by HPLC; assay type: physicochemical; conditions: 25° C., 6th Month
Where a name gives a salt, the structure may show the parent alone.
measurement label: Purity
// print number alone

Give its Purity value. Item: C[C@H](NC(=O)OC[n+]1cccc(C(=O)NCCO[N+](=O)[O-])c1)C1CCCCC1 [Compound 1 Triflate Salt]
78.5

Give its Purity value. Item: C[C@H](NC(=O)OC[n+]1cccc(C(=O)NCCO[N+](=O)[O-])c1)C1CCCCC1 [Compound 1 4-Bromobesylate Salt]
67.6

Give its Purity value. Item: C[C@H](NC(=O)OC[n+]1cccc(C(=O)NCCO[N+](=O)[O-])c1)C1CCCCC1 [Compound 1 4-Nitrobesylate Salt]
80.3

Give its Purity value. Item: C[C@H](NC(=O)OC[n+]1cccc(C(=O)NCCO[N+](=O)[O-])c1)C1CCCCC1 [Compound 1 Perchlorate Salt]
74.8

Give its Purity value. Item: C[C@H](NC(=O)OC[n+]1cccc(C(=O)NCCO[N+](=O)[O-])c1)C1CCCCC1 [Compound 1 Trifluoroacetate Salt]
85.9

---

assay: Stability of select salts of Compound 1 at 5, 25 and 40° C. over 6 months, purity by HPLC; format: physicochemical; conditions: 5° C., 1st Month
Counter-ions that a name gives are not always drawn.
measurement label: Purity
// print number alone

Check out these entries, answers already filled in.
1. C[C@H](NC(=O)OC[n+]1cccc(C(=O)NCCO[N+](=O)[O-])c1)C1CCCCC1 [Compound 1 4-Bromobesylate Salt] | 91.0
2. C[C@H](NC(=O)OC[n+]1cccc(C(=O)NCCO[N+](=O)[O-])c1)C1CCCCC1 [Compound 1 Phosphate Salt] | 95.8
3. C[C@H](NC(=O)OC[n+]1cccc(C(=O)NCCO[N+](=O)[O-])c1)C1CCCCC1 [Compound 1 Triflate Salt] | 95.0

API: the following record is the query input.
Give its Purity value. Item: C[C@H](NC(=O)OC[n+]1cccc(C(=O)NCCO[N+](=O)[O-])c1)C1CCCCC1 [Compound 1 4-Nitrobesylate Salt]
98.1

---

test: Stability of select salts of Compound 1 at 5, 25 and 40° C. over 6 months, purity by HPLC; type: physicochemical; conditions: 5° C., 1st Month
Structures can show the parent of a compound that is named as a salt.
measurement label: Purity
// print number alone

Check out these entries, answers already filled in.
1. C[C@H](NC(=O)OC[n+]1cccc(C(=O)NCCO[N+](=O)[O-])c1)C1CCCCC1 [Compound 1 Perchlorate Salt] | 96.3
2. C[C@H](NC(=O)OC[n+]1cccc(C(=O)NCCO[N+](=O)[O-])c1)C1CCCCC1 [Compound 1 Esylate Salt] | 92.7

Give its Purity value. Item: C[C@H](NC(=O)OC[n+]1cccc(C(=O)NCCO[N+](=O)[O-])c1)C1CCCCC1 [Compound 1 Trifluoroacetate Salt]
97.2

Give its Purity value. Item: C[C@H](NC(=O)OC[n+]1cccc(C(=O)NCCO[N+](=O)[O-])c1)C1CCCCC1 [Compound 1 Besylate Salt]
88.8

Give its Purity value. Item: C[C@H](NC(=O)OC[n+]1cccc(C(=O)NCCO[N+](=O)[O-])c1)C1CCCCC1 [Compound 1 Sulphate Salt]
90.7

---

Each entry below lists one item and its recorded Purity value.
assay: Stability of select salts of Compound 1 at 5, 25 and 40° C. over 6 months, purity by HPLC; assay type: physicochemical; conditions: 25° C., 6th Month
Structures can show the parent of a compound that is named as a salt.
// print number alone

Check out these entries, answers already filled in.
1) C[C@H](NC(=O)OC[n+]1cccc(C(=O)NCCO[N+](=O)[O-])c1)C1CCCCC1 [Compound 1 Besylate Salt] | 51.2
2) C[C@H](NC(=O)OC[n+]1cccc(C(=O)NCCO[N+](=O)[O-])c1)C1CCCCC1 [Compound 1 Esylate Salt] | 58.7
3) C[C@H](NC(=O)OC[n+]1cccc(C(=O)NCCO[N+](=O)[O-])c1)C1CCCCC1 [Compound 1 Sulphate Salt] | 23.5

API: the following record is the query input.
Give its Purity value. Item: C[C@H](NC(=O)OC[n+]1cccc(C(=O)NCCO[N+](=O)[O-])c1)C1CCCCC1 [Compound 1 Phosphate Salt]
69.4
